For each of the binders below, state its Bmax (MFI).
target: T1, human glypican-3 (GPC3) (human, UniProt P51654 25-554); assay: flow cytometry on JHH-5 cells; antibody after 14 days in mouse plasma at 37 C
T1 construct: Endogenous on JHH-7, JHH-5, HepG2 and NCI-H446 tumour cells, or transiently expressed on CHO-S cells from a pTT5 plasmid; also called hGPC3; huGPC3
Answer format: value, then unit.

Reference set (5 entries):
BINDER: H18L6_LC_G34R mAb, v40206 (antibody, human IgG1, kappa, V domains shown, Full-size IgG1/kappa) VH: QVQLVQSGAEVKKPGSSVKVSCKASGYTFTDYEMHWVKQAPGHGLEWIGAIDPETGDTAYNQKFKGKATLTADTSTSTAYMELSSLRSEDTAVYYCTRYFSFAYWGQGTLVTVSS VL: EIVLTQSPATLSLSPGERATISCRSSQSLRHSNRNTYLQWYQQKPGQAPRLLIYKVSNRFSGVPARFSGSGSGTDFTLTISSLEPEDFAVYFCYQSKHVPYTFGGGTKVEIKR
OBSERVED RESULT: 5320 MFI
--
BINDER: H18L6_LC_G34Q mAb, v40208 (antibody, human IgG1, kappa, V domains shown, Full-size IgG1/kappa) VH: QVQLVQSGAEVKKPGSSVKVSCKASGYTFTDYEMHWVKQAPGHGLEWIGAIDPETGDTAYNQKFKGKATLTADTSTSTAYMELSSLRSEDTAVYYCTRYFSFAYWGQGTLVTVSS VL: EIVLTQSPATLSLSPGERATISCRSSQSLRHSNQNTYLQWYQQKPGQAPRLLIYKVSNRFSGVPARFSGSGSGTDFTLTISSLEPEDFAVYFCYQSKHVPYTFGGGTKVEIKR
OBSERVED RESULT: 5640 MFI
--
BINDER: H18L6_LC_G34D mAb, v40203 (antibody, human IgG1, kappa, V domains shown) VH: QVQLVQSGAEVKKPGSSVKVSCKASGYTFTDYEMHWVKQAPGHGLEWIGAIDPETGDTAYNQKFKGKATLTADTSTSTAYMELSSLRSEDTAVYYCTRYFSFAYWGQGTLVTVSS VL: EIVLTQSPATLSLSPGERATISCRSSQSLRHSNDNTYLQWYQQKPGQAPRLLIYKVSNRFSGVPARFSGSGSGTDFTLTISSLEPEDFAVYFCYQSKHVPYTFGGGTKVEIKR
OBSERVED RESULT: 4520 MFI
--
BINDER: H18L6_LC_G34A mAb, v40212 (antibody, human IgG1, kappa, V domains shown, M3-H18L6 chains with the stated light chain point mutation, IgG1/kappa) VH: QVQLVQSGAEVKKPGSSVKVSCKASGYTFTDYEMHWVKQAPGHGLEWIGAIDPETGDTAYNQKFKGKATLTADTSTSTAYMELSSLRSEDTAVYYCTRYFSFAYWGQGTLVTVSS VL: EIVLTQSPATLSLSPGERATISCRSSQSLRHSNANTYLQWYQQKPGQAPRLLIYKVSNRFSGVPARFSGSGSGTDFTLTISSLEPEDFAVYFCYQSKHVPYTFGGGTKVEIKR
OBSERVED RESULT: 6050 MFI
--
BINDER: H18L6_LC_G34K mAb, v40207 (antibody, human IgG1, kappa, V domains shown, Full-size IgG1/kappa) VH: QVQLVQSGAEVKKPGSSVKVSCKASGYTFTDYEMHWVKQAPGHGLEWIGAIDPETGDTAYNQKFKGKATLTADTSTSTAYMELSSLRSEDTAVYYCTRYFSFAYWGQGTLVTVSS VL: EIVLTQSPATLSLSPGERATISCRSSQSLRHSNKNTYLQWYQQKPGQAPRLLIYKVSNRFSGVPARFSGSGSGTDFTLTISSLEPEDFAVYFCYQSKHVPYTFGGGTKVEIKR
OBSERVED RESULT: 6460 MFI

Would you kindly share the measured Bmax (MFI) for H18L6_LC_G34E mAb, v40204 (antibody, human IgG1, kappa, V domains shown, M3-H18L6 chains with the stated light chain point mutation, IgG1/kappa) VH: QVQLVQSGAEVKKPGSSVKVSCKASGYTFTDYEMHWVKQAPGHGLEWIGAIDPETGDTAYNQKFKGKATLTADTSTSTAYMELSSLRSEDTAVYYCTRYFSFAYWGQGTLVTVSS VL: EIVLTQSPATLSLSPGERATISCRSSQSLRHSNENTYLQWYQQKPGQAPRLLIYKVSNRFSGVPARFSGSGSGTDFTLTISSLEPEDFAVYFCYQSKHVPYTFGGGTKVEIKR ?
4460 MFI
